# ASSAY_METHOD_TEXT: Formation of 1,5-cz-[Ln(Lig)] from Lig and Ln^III ions (metal dependent click-zip), MOPS/NaOH buffer pH 7.0, analytical HPLC (Charts 1, 2)
# TEST_CONDITIONS: Pr^III; after 1 hour at 80° C.; MOPS/NaOH buffer pH 7.0
A collection of compounds and their measured conversion to 1,5-cz-[Ln(Lig)], Pr^III

[N-]=[N+]=NCc1cccc(CN2CCN(CC(=O)O)CCN(Cc3cccc(C#CC4CC4)n3)CCN(CC(=O)O)CC2)n1 | 0%
[N-]=[N+]=NCc1cc(-c2ccccc2)cc(CN2CCN(CC(=O)O)CCN(Cc3cccc(C#CCN)n3)CCN(CC(=O)O)CC2)n1 | 0%
[N-]=[N+]=NCc1cccc(CN2CCN(CC(=O)O)CCN(Cc3cccc(C#Cc4ccccc4)n3)CCN(CC(=O)O)CC2)n1 | 0%
C#Cc1cccc(CN2CCN(CC(=O)O)CCN(Cc3cc(C(=O)OC(C)C)cc(CN=[N+]=[N-])n3)CCN(CC(=O)O)CC2)n1 | 0%

Task: Field request: conversion to 1,5-cz-[Ln(Lig)], Pr^III | item: C#Cc1cccc(CN2CCN(CC(=O)O)CCN(Cc3cc(C(F)(F)F)cc(CN=[N+]=[N-])n3)CCN(CC(=O)O)CC2)n1
Output: 1%

###

Each record here notes measured conversion to 1,5-cz-[Ln(Lig)], Nd^III.
# ASSAY_METHOD_TEXT: Formation of 1,5-cz-[Ln(Lig)] from Lig and Ln^III ions (metal dependent click-zip), MOPS/NaOH buffer pH 7.0, analytical HPLC (Charts 1, 2)
# TEST_CONDITIONS: Nd^III; after 1 week at 80° C.; MOPS/NaOH buffer pH 7.0
API: value field is a number in %; no unit string.

Study these solved cases before continuing.
[N-]=[N+]=NCc1cccc(CN2CCN(CC(=O)O)CCN(Cc3cccc(C#Cc4ccccc4)n3)CCN(CC(=O)O)CC2)n1 [TD944] | 8
C#Cc1cccc(CN2CCN(CC(=O)O)CCN(Cc3cccc(CN=[N+]=[N-])n3)CCN(CC(=O)O)CC2)n1 [TD556] | 81

Task: Field request: conversion to 1,5-cz-[Ln(Lig)], Nd^III | item: C#CCNC(=O)CN1CCN(CC(=O)O)CCN(Cc2cc(-c3ccccc3)cc(CN=[N+]=[N-])n2)CCN(CC(=O)O)CC1 [TD425]
Output: 0

Task: Look up conversion to 1,5-cz-[Ln(Lig)], Nd^III: C#Cc1cccc(CN2CCN(CC(=O)O)CCN(Cc3cc(N(C)C)cc(CN=[N+]=[N-])n3)CCN(CC(=O)O)CC2)n1 [TD1176]
Output: 85

###

# ASSAY_METHOD_TEXT: Formation of 1,5-cz-[M(Lig)] from Lig and M^II ions (metal dependent click-zip) (Charts 6, 7)
# Assay type: physicochemical
# TEST_CONDITIONS: 1 week at 80° C.; MOPS/NaOH buffer pH 7.0; TD728 in 50% i-PrOH
// reported conversion to 1,5-cz-[M(Lig)], Ca^II for each item listed
Respond with the bare value in %.

Some solved cases for reference:
CC(C)[Si](C#Cc1cccc(CN2CCN(CC(=O)O)CCN(Cc3cccc(CN=[N+]=[N-])n3)CCN(CC(=O)O)CC2)n1)(C(C)C)C(C)C | 37
C#Cc1cccc(CN2CCN(CC(=O)O)CCN(Cc3cc(Cl)cc(CN=[N+]=[N-])n3)CCN(CC(=O)O)CC2)n1 | 95
C#Cc1cccc(CN2CCN(CC(=O)O)CCN(Cc3cc(-c4ccccc4)cc(CN=[N+]=[N-])n3)CCN(CC(=O)O)CC2)n1 | 87

Task: Need conversion to 1,5-cz-[M(Lig)], Ca^II of CC(C)(C)C#Cc1cccc(CN2CCN(CC(=O)O)CCN(Cc3cccc(CN=[N+]=[N-])n3)CCN(CC(=O)O)CC2)n1 , thanks.
Output: 83

Task: Name the reported conversion to 1,5-cz-[M(Lig)], Ca^II value associated with the molecule C#Cc1cccc(CN2CCN(CC(=O)O)CCN(Cc3cccc(CN=[N+]=[N-])n3)CCN(CP(=O)(O)O)CC2)n1
Output: 6

Task: Fill in: conversion to 1,5-cz-[M(Lig)], Ca^II of C#Cc1cccc(CN2CCN(CP(=O)(O)c3ccccc3)CCN(Cc3cccc(CN=[N+]=[N-])n3)CCN(CP(=O)(O)c3ccccc3)CC2)n1 is ___
Output: 0
